The values you see were collected from patent US20230374116A1.

Recorded kon, one value per entry.
- TEST_SYSTEM: SARS-CoV-2 receptor-binding domain (amino acids 330-532), prototypical Wuhan/Victoria (SARS-CoV-2 (Wuhan/Victoria), UniProt P0DTC2 330-532)
- EXPERIMENT_NOTES: SPR, RBD binding kinetics
Entry rule: numbers only, all in M⁻¹ s⁻¹.

C1-SUMO-H3-Fc (Fc fusion, also called C1-GSGSGS-SUMO-GSGSGS-H3) QVQLVESGGGLVQPGGSLRLSCAASGFTNDFYSIAWFRQAPGKEREGVSWLSVSDNTPTYVDSVKDRFTISRHNANNTVYLQMNMLKPEDTAIYYCAAGRFAGRDTWPSSYDYWGQGTQVTVSSGSGSGSDSEVNQEAKPEVKPEVKPETHINLKVSDGSSEIFFKIKKTTPLRRLMEAFAKRQGKEMDSLRFLYDGIRIQADQTPEDLDMEDNDIIEAHREQIGSGSGSQVQLVESGGGLVKTGGSLRLSCAASGRTFSTYSMGWFRQAPGKEREFVAGMRWTGSSTFYSDSVKGRFTVSRNNAKDTVYLHMNSLKPEDTAVYYCAITTIVRAYYTEYTEADFGSWGQGTQVTVS; 4.3e+06
C1-SUMO-C5-Fc (Fc fusion, also called C1-GSGSGS-SUMO-GSGSGS-C5) QVQLVESGGGLVQPGGSLRLSCAASGFTNDFYSIAWFRQAPGKEREGVSWLSVSDNTPTYVDSVKDRFTISRHNANNTVYLQMNMLKPEDTAIYYCAAGRFAGRDTWPSSYDYWGQGTQVTVSSGSGSGSDSEVNQEAKPEVKPEVKPETHINLKVSDGSSEIFFKIKKTTPLRRLMEAFAKRQGKEMDSLRFLYDGIRIQADQTPEDLDMEDNDIIEAHREQIGSGSGSQVQLVESGGGSVQAGGSLTLSCVASGVTLGRHAIGWFRQAPGKERERVSCIRTFDGITSYVESTKGRFTISSNNAMNTVYLQMNSLKPEDTAVYFCALGVTAACSDNPYFWGQGTQVTVSS; 3e+07

--- query ---
Inquiry: Param item = C1-SUMO-H11-H4-Fc (Fc fusion, also called C1-GSGSGS-SUMO-GSGSGS-H11-H4) QVQLVESGGGLVQPGGSLRLSCAASGFTNDFYSIAWFRQAPGKEREGVSWLSVSDNTPTYVDSVKDRFTISRHNANNTVYLQMNMLKPEDTAIYYCAAGRFAGRDTWPSSYDYWGQGTQVTVSSGSGSGSDSEVNQEAKPEVKPEVKPETHINLKVSDGSSEIFFKIKKTTPLRRLMEAFAKRQGKEMDSLRFLYDGIRIQADQTPEDLDMEDNDIIEAHREQIGSGSGSQVQLVESGGGLMQAGGSLRLSCAVSGRTFSTAAMGWFRQAPGKEREFVAAIRWSGGSAYYADSVKGRFTISRDKAKNTVYLQMNSLKYEDTAVYYCAQTHYVSYLLSDYATWPYDYWGQGTQVTVSS ; retrieve measured kon.
Reply text: 5.1e+06
